// data source = ChEMBL document CHEMBL3739426

test system: HT-29; assay: Cytotoxicity against human HT-29 cells after 48 hrs by MTT assay; assay type: functional, cell-based; conditions: HT-29, 48 h
# IC50 listing for each entry below
measurement kind: IC50

COc1ccc(C2=NO[C@@H]3[C@H](CO)C[C@H](CO)[C@H]23)cc1
> 50 µg/mL
O=C(O)[C@H]1C[C@@H](C(=O)O)[C@H]2ON=C(c3ccccc3Cl)[C@H]21
> 50 µg/mL
COC(=O)[C@H]1C[C@@H](C(=O)OC)[C@H]2ON=C(c3ccc(OC)c(OC)c3)[C@H]21
> 50 µg/mL
COC(=O)[C@H]1C[C@@H](C(=O)OC)[C@H]2ON=C(c3ccc(Cl)cc3)[C@H]21
> 50 µg/mL
O=C(O)[C@H]1C[C@@H](C(=O)O)[C@H]2ON=C(c3ccc(Cl)cc3)[C@H]21
> 50 µg/mL
O=C(O)[C@H]1C[C@@H](C(=O)O)[C@H]2ON=C(c3ccc(Br)cc3)[C@H]21
> 50 µg/mL
COC(=O)[C@H]1C[C@@H](C(=O)OC)[C@H]2ON=C(c3ccc(OC)cc3)[C@H]21
28.9 µg/mL
O=C(O)[C@H]1C[C@@H](C(=O)O)[C@H]2ON=C(c3ccc(F)cc3)[C@H]21
> 50 µg/mL
COc1cc([C@@H]2c3cc4c(cc3[C@@H](O[C@@H]3O[C@@H]5CO[C@@H](C)O[C@H]5[C@H](O)[C@H]3O)[C@H]3COC(=O)[C@H]23)OCO4)cc(OC)c1O [ETOPOSIDE]
4.21 µg/mL
COC(=O)[C@H]1C[C@@H](C(=O)OC)[C@H]2ON=C(c3ccccc3Cl)[C@H]21
> 50 µg/mL
COc1ccc(C2=NO[C@H]3[C@@H]2[C@@H](C(=O)O)C[C@H]3C(=O)O)cc1
> 50 µg/mL
OC[C@@H]1C[C@H](CO)[C@@H]2C(c3ccc(Br)cc3)=NO[C@H]12
37.3 µg/mL
